These data points were gathered from patent US20220227814A1.

- tgt: ComD1 receptor (Streptococcus pneumoniae)
- measurement description: cell-based or functional assay
Bridge positions count the residues as written; N and C are the ends. Ends that are not written are not given here.
maximal induction of comX compared to CSP1: recorded values
reported endpoint: maximal induction of comX compared to CSP1 (%)

binder	assay result
EMRLSXFFRDFILQRKK (Orn (ornithine) at position 6; side chain-to-side chain lactam between Orn6 and Asp10) [CSP1-cyc(Orn6D10)]	100
EMRLSKFFRDFILQRKK (lactam 6-10) [CSP1-cyc(K6D10)]	44
EMRLSXFFREFILQRKK (Dap at position 6; side chain-to-side chain lactam between Dap6 and Glu10) [CSP1-cyc(Dap6E10)]	100
EMRLSXFFREFILQRKK (Dab at position 6; side chain-to-side chain lactam between Dab6 and Glu10) [CSP1-cyc(Dab6E10)]	100
